Data origin: ChEMBL document CHEMBL5108027

Assay: Hemolytic activity in human RBC measured after 1 hr
Type: toxicity, cell-based, Erythrocyte
Details: human red blood cells (erythrocytes)
Entries and their measured HC50 at 1 h follow.

Query smiles: O=C1c2cccc3c(N/N=C/c4cccc(Cl)c4)ccc(c23)C(=O)N1C(CO)CO
HC50 at 1 h: > 1000 µg/mL

Query smiles: CCOC(=O)Cn1cc(/C=N/Nc2ccc3c4c(cccc24)C(=O)N(C(CO)CO)C3=O)c2ccccc21
HC50 at 1 h: > 1000 µg/mL

Lookup: Value lookup for HC50 at 1 h; key = CCn1c2ccccc2c2cc(/C=N/Nc3ccc4c5c(cccc35)C(=O)N(C(CO)CO)C4=O)ccc21
Found: 722 µg/mL

Lookup: Value lookup for HC50 at 1 h; key = COc1ccc(/C=N/Nc2ccc3c4c(cccc24)C(=O)N(C(CO)CO)C3=O)cc1
Found: > 1000 µg/mL

Lookup: Value lookup for HC50 at 1 h; key = O=C1c2cccc3c(N/N=C/c4ccc5ccccc5c4)ccc(c23)C(=O)N1C(CO)CO
Found: > 1000 µg/mL

---

Entries and their measured selectivity ratio follow.
Test: Selectivity ratio of HC50 for hemolytic activity in human RBC to MIC for antibacterial activity against Staphylococcus aureus
Type: toxicity
Conditions: human red blood cells (erythrocytes)

Study these solved cases before continuing.
Query smiles: CCn1c2ccccc2c2cc(/C=N/Nc3ccc4c5c(cccc35)C(=O)N(C(CO)CO)C4=O)ccc21
selectivity ratio: 2890
--
Query smiles: O=C1c2cccc3c(N/N=C/c4cccc(Cl)c4)ccc(c23)C(=O)N1C(CO)CO
selectivity ratio: > 4000

Now consider a different molecule.
Lookup: Value lookup for selectivity ratio; key = CCOC(=O)Cn1cc(/C=N/Nc2ccc3c4c(cccc24)C(=O)N(C(CO)CO)C3=O)c2ccccc21
Found: > 4000

---

Test system: Acinetobacter baumannii
Experiment: Antibacterial activity against Acinetobacter baumannii measured by Muller-Hinton broth based microdilution assay
Type: functional
Entries and their measured MIC follow.
Report as a plain number; the unit mg/L is understood.

Query smiles: O=C1c2cccc3c(N/N=C/c4ccccc4)ccc(c23)C(=O)N1C(CO)CO
Observed value: 64
--
Query smiles: O=C1c2cccc3c(N/N=C/c4ccccc4F)ccc(c23)C(=O)N1C(CO)CO
Observed value: 64
--
Query smiles: C#CCn1cc(/C=N/Nc2ccc3c4c(cccc24)C(=O)N(C(CO)CO)C3=O)c2ccccc21
Observed value: 16
--
Query smiles: COc1cc(/C=N/Nc2ccc3c4c(cccc24)C(=O)N(C(CO)CO)C3=O)ccc1O
Observed value: 64

Lookup: Value lookup for MIC; key = O=C1c2cccc3c(N/N=C/c4cccc(F)c4)ccc(c23)C(=O)N1C(CO)CO
Found: 64

---

Entries and their measured MIC follow.
Test system: Acinetobacter baumannii
Test: Antibacterial activity against Acinetobacter baumannii measured by Muller-Hinton broth based microdilution assay
Format: functional
Report as a plain number; the unit µg/mL is understood.

Query smiles: O=C1c2cccc3c(N/N=C/c4c[nH]c5ccccc45)ccc(c23)C(=O)N1C(CO)CO
MIC, µg/mL: 64

Query smiles: O=C1c2cccc3c(N/N=C/c4ccc5ccccc5n4)ccc(c23)C(=O)N1C(CO)CO
MIC, µg/mL: 64

Query smiles: O=C1c2cccc3c(N/N=C/c4ccc(C(F)(F)F)cc4)ccc(c23)C(=O)N1C(CO)CO
MIC, µg/mL: 64

Lookup: Value lookup for MIC; key = CCCCCCCCCCCCn1cc(/C=N/Nc2ccc3c4c(cccc24)C(=O)N(C(CO)CO)C3=O)c2ccccc21
Found: 64
